experiment: Rat in vivo pharmacokinetics study after oral administration of product A, B or C; design: species or system Male Sprague-Dawley (SD) rats; conditions: male, Sprague-Dawley, rat, plasma, po, 10 mL·kg^−1, rats, single oral dose 10 mL·kg^−1 of product B (FF extract and water 1:1), mean±SD
Label no if Cmax falls below 10 ng/mL; label yes in every other case.

COMPOUND	QUALITATIVE_LABEL
O=c1c(O)c(-c2ccc(O)c(O)c2)oc2cc(O)cc(O)c12	yes
COc1cc(C2OCC3C(c4ccc(O[C@@H]5O[C@H](CO)[C@@H](O)[C@H](O)[C@H]5O)c(OC)c4)OCC23)ccc1O (stereo partly drawn) [Pinoresinol-β-D-glucoside]	yes
C[C@@H]1O[C@@H](OC[C@H]2O[C@@H](Oc3c(-c4ccc(O)c(O)c4)oc4cc(O)cc(O)c4c3=O)[C@H](O)[C@@H](O)[C@@H]2O)[C@H](O)[C@H](O)[C@H]1O	yes
C[C@@H]1O[C@@H](OC[C@H]2O[C@@H](OCCc3ccc(O)c(O)c3)[C@H](O)[C@@H](O)[C@@H]2OC(=O)/C=C/c2ccc(O)c(O)c2)[C@H](O)[C@H](O)[C@H]1O [Forsythoside A]	yes
O=c1c(O[C@@H]2O[C@H](CO)[C@@H](O)[C@H](O)[C@H]2O)c(-c2ccc(O)c(O)c2)oc2cc(O)cc(O)c12	no
COc1cc(C[C@H]2C(=O)OC[C@@H]2Cc2ccc(OC)c(OC)c2)ccc1O	no

----------
Below, each entry is listed alongside its reported MRT.
experiment: Rat in vivo pharmacokinetics study after oral administration of product A, B or C; set-up: species or system Male Sprague-Dawley (SD) rats; conditions: male, Sprague-Dawley, rat, plasma, po, 10 mL·kg^−1, rats, oral product A, 10 mL·kg^−1
ASSAY_ENDPOINT: MRT (h)

> print(dat)
                                   compound  reported.measurement
1  O=c1c(O[C@@H]2O[C@H](CO)[C@H](O)[C@H](O)[C@H]2O)c(-c2ccc(O)c(O)c2)oc2cc(O)cc(O)c12 [Hyperoside]                  7.27
2  O=C(/C=C/c1ccc(O)c(O)c1)O[C@@H]1C[C@](O)(C(=O)O)C[C@@H](OC(=O)/C=C/c2ccc(O)c(O)c2)[C@H]1O                   7.3
3   O=c1cc(-c2ccc(O)c(O)c2)oc2cc(O)cc(O)c12                  5.78
4  O=C(O)[C@]1(O)C[C@@H](O)[C@@H](O)[C@H](O)C1                  3.98

----------
assay: Rat in vivo pharmacokinetics study after oral administration of product A, B or C; design: species or system Male Sprague-Dawley (SD) rats; settings: male, Sprague-Dawley, rat, plasma, po, 10 mL·kg^−1, rats, oral product A, 10 mL·kg^−1
# MRT values compiled below
ASSAY_ENDPOINT: MRT (h)

> print(dat)
                                   compound  assay.endpoint  reported.measurement
1  COC(=O)C1=CO[C@@H](O[C@@H]2O[C@H](CO)[C@@H](O)[C@H](O)[C@H]2O)[C@@H]2[C@@H](C)[C@@H](O)C[C@H]12             MRT                  5.82
2  O=C(C=Cc1ccc(O)c(O)c1)OC1CC(O)(C(=O)O)CC(O)C1OC(=O)C=Cc1ccc(O)c(O)c1 (stereo not shown)             MRT                  7.03
3  O=c1c(O[C@@H]2O[C@H](CO)[C@@H](O)[C@H](O)[C@H]2O)c(-c2ccc(O)cc2)oc2cc(O)cc(O)c12             MRT                  8.15
4      O=c1c(-c2ccc(O)cc2)coc2cc(O)cc(O)c12             MRT                  10.8
5  O=C(/C=C/c1ccc(O)c(O)c1)O[C@H]1[C@H](O)C[C@](O)(C(=O)O)C[C@H]1O             MRT                  5.55
6  O=C(/C=C/c1ccc(O)c(O)c1)O[C@@H]1C[C@](O)(C(=O)O)C[C@@H](O)[C@H]1O             MRT                  5.78
7  O=c1c(O[C@@H]2O[C@H](CO)[C@@H](O)[C@H](O)[C@H]2O)c(-c2ccc(O)c(O)c2)oc2cc(O)cc(O)c12             MRT                  9.28

----------
Experiment: Rat in vivo pharmacokinetics study after oral administration of product A, B or C
Set-up: species or system Male Sprague-Dawley (SD) rats
Conditions: male, Sprague-Dawley, rat, plasma, po, 10 mL·kg^−1, rats, oral product B, 10 mL·kg^−1
Description: Product A (extract mixed with FLJ extract and water, (1∶1, v / v )), product B (extract mixed with FF extract and water, (1∶1, v / v )) and product C (extract mixed with FLJ and FF extracts, (1∶1, v / v )) were given to oral administration to rats, respectively. Male SD rats (∼250 g) were kept in an environmentally controlled breeding room (temperature: 20±2°C, relative humidity: 60±5%) for 1 week. […]
ASSAY_ENDPOINT: log10 of AUC(0-inf) (log10 of the value in ng·h/mL)

COMPOUND	REPORTED_MEASUREMENT
O=C(O)/C=C/c1ccc(O)c(O)c1	2.83
COc1cc(C[C@H]2C(=O)OC[C@@H]2Cc2ccc(OC)c(OC)c2)ccc1O	0.65
C[C@@H]1O[C@@H](OC[C@H]2O[C@@H](OCCc3ccc(O)c(O)c3)[C@H](O)[C@@H](O)[C@@H]2OC(=O)/C=C/c2ccc(O)c(O)c2)[C@H](O)[C@H](O)[C@H]1O [Forsythoside A]	2.36
O=c1c(O)c(-c2ccc(O)c(O)c2)oc2cc(O)cc(O)c12	1.81
O=c1c(O[C@@H]2O[C@H](CO)[C@@H](O)[C@H](O)[C@H]2O)c(-c2ccc(O)c(O)c2)oc2cc(O)cc(O)c12	0.51

----------
test: Rat in vivo pharmacokinetics study after oral administration of product A, B or C; design: species or system Male Sprague-Dawley (SD) rats; settings: male, Sprague-Dawley, rat, plasma, po, 10 mL·kg^−1, rats, oral product A, 10 mL·kg^−1

MOLECULE_SMILES	Tmax [min]
C[C@@H]1O[C@@H](OC[C@H]2O[C@@H](Oc3c(-c4ccc(O)c(O)c4)oc4cc(O)cc(O)c4c3=O)[C@H](O)[C@@H](O)[C@@H]2O)[C@H](O)[C@H](O)[C@H]1O	10
O=C(O)[C@]1(O)C[C@@H](O)[C@@H](O)[C@H](O)C1	21
O=c1c(O[C@@H]2O[C@H](CO)[C@@H](O)[C@H](O)[C@H]2O)c(-c2ccc(O)cc2)oc2cc(O)cc(O)c12	10

----------
Assay: Rat in vivo pharmacokinetics study after oral administration of product A, B or C
Design: species or system Male Sprague-Dawley (SD) rats
Details: male, Sprague-Dawley, rat, plasma, po, 10 mL·kg^−1, rats, oral product A, 10 mL·kg^−1
Method: Product A (extract mixed with FLJ extract and water, (1∶1, v / v )), product B (extract mixed with FF extract and water, (1∶1, v / v )) and product C (extract mixed with FLJ and FF extracts, (1∶1, v / v )) were given to oral administration to rats, respectively. Male SD rats (∼250 g) were kept in an environmentally controlled breeding room (temperature: 20±2°C, relative humidity: 60±5%) for 1 week. […]
ASSAY_ENDPOINT: AUC(0-inf)

> print(dat)
                                   compound  reported.measurement
1  O=C(/C=C/c1ccc(O)c(O)c1)O[C@@H]1C[C@@](O)(C(=O)O)C[C@@H](O)[C@@H]1O           138 ng·h/mL
2  O=c1c(O[C@@H]2O[C@H](CO)[C@@H](O)[C@H](O)[C@H]2O)c(-c2ccc(O)c(O)c2)oc2cc(O)cc(O)c12          2.63 ng·h/mL
3                 O=C(O)/C=C/c1ccc(O)c(O)c1          1190 ng·h/mL
4  O=c1c(O[C@@H]2O[C@H](CO)[C@@H](O)[C@H](O)[C@H]2O)c(-c2ccc(O)cc2)oc2cc(O)cc(O)c12          4.32 ng·h/mL
5  O=C(/C=C/c1ccc(O)c(O)c1)O[C@@H]1C[C@](O)(C(=O)O)C[C@@H](O)[C@H]1O           707 ng·h/mL
6  O=c1c(O[C@@H]2O[C@H](CO)[C@H](O)[C@H](O)[C@H]2O)c(-c2ccc(O)c(O)c2)oc2cc(O)cc(O)c12 [Hyperoside]          9.89 ng·h/mL

Values were extracted from paper PMC4183595.
